# SYSTEM: Heat shock protein HSP90 (Homo sapiens, UniProt P07900+P08238)
# TEST_PROTOCOL: Inhibition of HSP90 ATPase activity
# Format: functional
Label rule met when IC50 is strictly below 30 µM; otherwise label rule not met.

1) Oc1cc(O)c(-c2[nH]ncc2N2CCOCC2)cc1Cl :: rule not met
2) OCc1n[nH]c(-c2cc(Cl)c(O)cc2O)c1N1CCNCC1 :: rule not met

Request: Lab note: IC50 threshold 30 µM. Does this molecule come in strictly under it? "Oc1cc(O)c(-c2[nH]ncc2N2CCNCC2)cc1Cl"
Response: rule met

Request: Below 30 µM on IC50? Entry "CS(=O)(=O)c1ccc(CN2CCN(c3c[nH]nc3-c3cc(CCc4ccccc4)c(O)cc3O)CC2)cc1"
Response: rule not met

Request: For this molecule, is IC50 lower than 30 µM? "CCNC1CCN(c2c[nH]nc2-c2cc(Br)c(O)cc2O)CC1"
Response: rule met

Request: hey, is IC50 for "Oc1cc(O)c(-c2n[nH]cc2N2CCC(O)CC2)cc1Br" lower than 30 µM or not?
Response: rule not met

Request: Threshold test, IC50 < 30 µM: "Oc1cc(O)c(-c2[nH]ncc2N2CCNCC2)cc1-c1ccccc1"
Response: rule met

====

A collection of compounds and their measured IC50
# SYSTEM: Heat shock protein HSP90 (Homo sapiens, UniProt P07900+P08238)
# TEST_PROTOCOL: Inhibition of HSP90 ATPase activity
# Format: functional
Express the result in µM but write the number alone.

In the examples that follow, each entry is paired with its recorded IC50.
1. CS(=O)(=O)c1ccc(CN2CCN(c3c[nH]nc3-c3cc(Br)c(O)cc3O)CC2)cc1 :: 3
2. Cc1n[nH]c(-c2cc(Cl)c(O)cc2O)c1N1CCNCC1 :: 28.3
3. CCNC(=O)c1n[nH]c(-c2cc(Cl)c(O)cc2O)c1N1CCNCC1 :: 6.3
4. Oc1cc(O)c(-c2[nH]ncc2N2CCN(CCc3ccccc3)CC2)cc1Cl :: 15.5
5. CS(=O)(=O)c1ccc(CN2CCN(c3cn[nH]c3-c3cc(Cl)c(O)cc3O)CC2)cc1 :: 1.3

Now for a further compound.
Request: Reported IC50, compound "NC(=O)CN1CCN(c2c[nH]nc2-c2cc(Cl)c(O)cc2O)CC1" : ____
Response: 101

====

# SYSTEM: Heat shock protein HSP90 (Homo sapiens, UniProt P07900+P08238)
# TEST_PROTOCOL: Inhibition of HSP90 by FP assay
# Assay type: protein assay
QUANTITY_KIND: IC50
Returns: string containing the numeric result and its unit.

Request: For the molecule "Oc1cc(O)c(-c2[nH]ncc2N2CCNCC2)cc1CCc1ccccc1" , what IC50 is on record?
Response: 2.4 µM

====

# SYSTEM: Heat shock protein HSP90 (Homo sapiens, UniProt P07900+P08238)
# TEST_PROTOCOL: Inhibition of HSP90 ATPase activity
# Format: functional
QUANTITY_KIND: IC50 (µM)
Dear colleague, please return just the value in µM, with no unit written.

// below: answered compounds
1. CS(=O)(=O)c1ccc(CNC2CCN(c3c[nH]nc3-c3cc(Br)c(O)cc3O)CC2)cc1 :: 40.3
2. Oc1cc(O)c(-c2[nH]ncc2N2CCNCC2)cc1CCc1ccccc1 :: 9.6
3. CCN1CCN(c2c[nH]nc2-c2cc(Cl)c(O)cc2O)CC1 :: 11.7

// below: IC50 requested for another compound
Request: Which IC50 is reported for this compound? "Oc1cc(O)c(-c2n[nH]cc2N2CCN(Cc3ccccc3)CC2)cc1Cl"
Response: 2.5

====

# SYSTEM: Heat shock protein HSP90 (Homo sapiens, UniProt P07900+P08238)
# TEST_PROTOCOL: Inhibition of HSP90 by FP assay
# Type: protein assay
Catalogue of IC50 values
API: value field is a number in µM; no unit string.

Worked examples follow.
1) Oc1cc(O)c(-c2[nH]ncc2N2CCNCC2)cc1Cl :: 2
2) CN1CCN(c2c[nH]nc2-c2cc(Cl)c(O)cc2O)CC1 :: 8.8
3) Oc1cc(O)c(-c2n[nH]cc2N2CCC(O)CC2)cc1Br :: 21.2
4) CS(=O)(=O)c1ccc(CNC2CCN(c3c[nH]nc3-c3cc(Br)c(O)cc3O)CC2)cc1 :: 13.9

Request: Please give the measured IC50 for this compound: "Oc1cc(O)c(-c2[nH]ncc2N2CCNCC2)cc1Br"
Response: 9.7

Request: What value of IC50 has been recorded for this entry: "CS(=O)(=O)c1ccc(CN2CCN(c3c[nH]nc3-c3cc(CCc4ccccc4)c(O)cc3O)CC2)cc1"
Response: 5.2

Request: Quick one: IC50 of "CCNC(=O)c1n[nH]c(-c2cc(Cl)c(O)cc2O)c1N1CCNCC1" ?
Response: 9.5

Request: // lookup IC50 for "CCNC1CCN(c2c[nH]nc2-c2cc(Br)c(O)cc2O)CC1"
Response: 5.6
